targetOfAssay: hCRTH2 (Homo sapiens, UniProt Q9Y5Y4)
Construct: expressed in transfected cells; host or cells: HEK (human embryonic kidney) cells expressing hCRTH2
Sequence (Q9Y5Y4 whole entry): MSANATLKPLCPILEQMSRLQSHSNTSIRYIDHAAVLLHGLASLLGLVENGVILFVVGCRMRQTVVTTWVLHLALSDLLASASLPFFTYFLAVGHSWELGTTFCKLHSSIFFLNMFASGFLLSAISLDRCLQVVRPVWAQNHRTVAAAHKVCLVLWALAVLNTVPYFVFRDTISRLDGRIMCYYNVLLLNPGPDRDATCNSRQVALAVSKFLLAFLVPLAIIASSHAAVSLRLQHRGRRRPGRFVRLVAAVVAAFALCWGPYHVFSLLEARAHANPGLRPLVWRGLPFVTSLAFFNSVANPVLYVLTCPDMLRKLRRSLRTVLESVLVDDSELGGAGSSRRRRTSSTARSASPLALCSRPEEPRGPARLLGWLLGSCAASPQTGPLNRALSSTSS
assayInfo: Radioligand Binding Assay A ([3H]PGD2 filtration binding, HEK-hCRTH2 membranes)
runParameters: Table A, rated A-D
Ki values by entry

Observe how each entry below is paired with its result.
compound="O=C(O)CCCCc1cc2cc(C(=O)NC(c3ccccc3)c3ccccc3)ccc2nc1-c1ccc(F)cc1 [Compound 5AA]" testreadout=Ki val="2.1 to 20 nM"
compound="C[C@@H](NC(=O)c1ccc2nc(-c3ccc(F)cc3)c(CCCCC(=O)O)cc2c1)c1cc(Cl)cc(Cl)c1 [Compound 5X]" testreadout=Ki val="2.1 to 20 nM"
compound="O=C(O)CCCCc1nc2cc(C(=O)N3CCC[C@@H](c4ccccc4)C3)ccc2cc1-c1ccccc1 [Compound 3J]" testreadout=Ki val="20.1 to 200 nM"
compound="O=C(O)CCCCc1cc2cc(C(=O)NCc3cccnc3)ccc2nc1-c1ccccc1 [Compound 1X]" testreadout=Ki val="20.1 to 200 nM"
compound="O=C(O)CCCCc1nc2cc(C(=O)N3CC(c4ccccc4)C3)ccc2cc1-c1ccccc1 [Compound 3L]" testreadout=Ki val="0.1 to 2 nM"

Entry C[C@@H](NC(=O)c1ccc2nc(-c3ccc(F)cc3)c(CCCCC(=O)O)cc2c1)c1ccc(Cl)cc1 [Compound 5] needs its Ki filled in; supply it. 2.1 to 20 nM

Entry C[C@@H](CNC(=O)c1ccc2nc(-c3ccc(F)cc3)c(CCCCC(=O)O)cc2c1)c1ccccc1 [Compound 5AB] needs its Ki filled in; supply it. 2.1 to 20 nM

Entry O=C(O)CCCCc1cc2cc(C(=O)N3CC[C@H](c4ccccc4)C3)ccc2nc1-c1ccccc1 [Compound 1J] needs its Ki filled in; supply it. 2.1 to 20 nM

Entry CN(Cc1ccccc1)C(=O)c1ccc2nc(-c3ccccc3)c(CCCCC(=O)O)cc2c1 [Compound 1U] needs its Ki filled in; supply it. 2.1 to 20 nM

Attribution: patent US9290453B2
